experiment: Cytotoxicity in human MRC5 cells assessed as reduction in cell viability incubated for 24 hrs by resazurin-based cytotoxicity assay
Recorded CC50 at 24 h by entry
The reply should be a number in µM, with the unit left off.

INSERT INTO results (smiles_representation, assay_metric, display_unit, recorded_number) VALUES
  ('CN(OCc1ccc([N+](=O)[O-])o1)C(=O)CCCP(=O)(OCOC(=O)C(C)(C)C)OCOC(=O)C(C)(C)C', 'CC50 at 24 h', 'µM', 26.3),
  ('CN(OC(=O)NCc1ccccc1)C(=O)CCCP(=O)(OCOC(=O)C(C)(C)C)OCOC(=O)C(C)(C)C', 'CC50 at 24 h', 'µM', 27.9),
  ('CN(OCc1ccc([N+](=O)[O-])s1)C(=O)CCCP(=O)(OCOC(=O)C(C)(C)C)OCOC(=O)C(C)(C)C', 'CC50 at 24 h', 'µM', 20.5),
  ('CN(OCc1ccc([N+](=O)[O-])cc1)C(=O)CCCP(=O)(OCOC(=O)C(C)(C)C)OCOC(=O)C(C)(C)C', 'CC50 at 24 h', 'µM', 26.5);

So, `CN(OC(=O)Nc1ccccc1)C(=O)CCCP(=O)(OCOC(=O)C(C)(C)C)OCOC(=O)C(C)(C)C` ? Its CC50 at 24 h was 33.4

Per the record, `CCNC(=O)ON(C)C(=O)CCCP(=O)(OCOC(=O)C(C)(C)C)OCOC(=O)C(C)(C)C` has CC50 at 24 h of 25.9

* * *

Readings of pIC50 for the listed compounds
tested on: Plasmodium falciparum; test: Antiplasmodial activity against Plasmodium falciparum K1 infected in human erythrocytes assessed as reduction in parasite multiplication incubated for 72 hrs by Malstat method; format: functional, organism-based; settings: K1, 72 h
Lab note — pIC50 values are minus log10 of concentrations in M.

These solved cases illustrate the format of a correct answer.
INSERT INTO assay_data (smiles_representation, recorded_number) VALUES
  ('CC(=O)ON(C)C(=O)CCCP(=O)(OCOC(=O)C(C)(C)C)OCOC(=O)C(C)(C)C', 5.87),
  ('CN(OCc1ccc([N+](=O)[O-])o1)C(=O)CCCP(=O)(OCOC(=O)C(C)(C)C)OCOC(=O)C(C)(C)C', 5.35),
  ('CCCCCCCCC(=O)Oc1ccc(CON(C)C(=O)CCCP(=O)(OCOC(=O)C(C)(C)C)OCOC(=O)C(C)(C)C)cc1', 4.72),
  ('CN(OC(=O)c1ccccc1)C(=O)CCCP(=O)(OCOC(=O)C(C)(C)C)OCOC(=O)C(C)(C)C', 5.97),
  ('CN(OC(=O)Nc1ccccc1)C(=O)CCCP(=O)(OCOC(=O)C(C)(C)C)OCOC(=O)C(C)(C)C', 5.48);

The recorded pIC50 for entry `CN(OC(=O)NCc1ccccc1)C(=O)CCCP(=O)(OCOC(=O)C(C)(C)C)OCOC(=O)C(C)(C)C` equals 6.19

// sample `CN(OCc1ccc([N+](=O)[O-])cc1)C(=O)CCCP(=O)(OCOC(=O)C(C)(C)C)OCOC(=O)C(C)(C)C` , its pIC50 was 5.06

* * *

assay: Oral bioavailability in healthy human at 500 mg; type: ADME, organism-based; conditions: in vivo
assay metric: bioavailability

What the record says about O=CN(O)CCCP(=O)([O-])O.[Na+] [FOSMIDOMYCIN SODIUM] : bioavailability is 20 to 40%

* * *

test system: Plasmodium falciparum; assay: Antiplasmodial activity against Plasmodium falciparum K1 infected in human erythrocytes assessed as reduction in parasite multiplication incubated for 72 hrs by Malstat method; assay type: functional, organism-based; conditions: K1, 72 h
Each record here notes measured IC50.
Just the number in nM, nothing appended.

Worked set:
INSERT INTO assay_data (smiles_representation, assay_metric, display_unit, recorded_number) VALUES
  ('CCCCCCCCC(=O)ON(C)C(=O)CCCP(=O)(OCOC(=O)C(C)(C)C)OCOC(=O)C(C)(C)C', 'IC50', 'nM', 1410),
  ('CN(OCc1ccc([N+](=O)[O-])s1)C(=O)CCCP(=O)(OCOC(=O)C(C)(C)C)OCOC(=O)C(C)(C)C', 'IC50', 'nM', 4690);

Given item `CCNC(=O)ON(C)C(=O)CCCP(=O)(OCOC(=O)C(C)(C)C)OCOC(=O)C(C)(C)C` , the value recorded as its IC50 is 2520
